# Test system: Clostridium perfringens 81
# Protocol Summary: microbe, parasite or virus in culture
# Type: cell-based
# Measurement Setup: Clostridium perfringens, 81, 24 h, read-out: 24 Hr. Minimum Inhibitory Concentration
Readings of MIC for the listed compounds

>  <Compound>
Cn1c([N+](=O)[O-])cnc1-c1nn(CCO)c(N)c1C#N [Compound 14]

>  <MIC>
< 0.125 µg/mL

$$$$
>  <Compound>
CC=CC=Nc1c(C#N)c(-c2ncc([N+](=O)[O-])n2C)nn1C [Compound 18]

>  <MIC>
< 0.125 µg/mL

$$$$
>  <Compound>
Cn1nc(-c2ncc([N+](=O)[O-])n2C)c(C(=O)O)c1N [Compound 10A]

>  <MIC>
0.5 µg/mL

$$$$
>  <Compound>
CN(C)C=Nc1c(C#N)c(-c2ncc([N+](=O)[O-])n2C)nn1C [Compound 9]

>  <MIC>
< 0.125 µg/mL

$$$$
>  <Compound>
CC(=O)OCC1=C(C(=O)O)N2C(=O)[C@@H](NC(=O)Cc3cccs3)[C@H]2SC1 [Cephalothin, cephalothin, reference compound]

>  <MIC>
2 µg/mL

$$$$
>  <Compound>
Cn1c([N+](=O)[O-])cnc1-c1nn(CCCl)c(N)c1C#N [Compound 15]

>  <MIC>
< 0.125 µg/mL

$$$$
>  <Compound>
Cn1nc(-c2ncc([N+](=O)[O-])n2C)cc1N [Compound 3]

>  <MIC>
< 0.125 µg/mL

$$$$
>  <Compound>
CCNc1cc(-c2ncc([N+](=O)[O-])n2C)nn1C [Compound 11A]

>  <MIC>
0.03 µg/mL

$$$$
>  <Compound>
CC(=O)Nc1c(C#N)c(-c2ncc([N+](=O)[O-])n2C)nn1C [Compound 8]

>  <MIC>
1 µg/mL

$$$$

Recorded values, source patent US3980794A.
